For each record, write down the corresponding normalised viability.
Tested on: MDA-MB-231
PROTOCOL_NOTES: normalised viability (% of control), CellTiter-Blue; higher = more viable cells (about 100 = DMSO control)
SETTINGS: 1000 nM; incubation time: 72 h
Please give a number only; it is taken to be in %.

(Q) Return reported normalised viability; argument: Oc1ncc(N(CCCl)CCCl)c(O)n1
(A) 103

(Q) Return reported normalised viability; argument: CCCS(=O)(=O)Nc1ccc(F)c(C(=O)c2c[nH]c3ncc(-c4ccc(Cl)cc4)cc23)c1F
(A) 92.4

(Q) Return reported normalised viability; argument: Nc1ccccc1NC(=O)c1ccc(CNC(=O)OCc2cccnc2)cc1
(A) 78.7

(Q) Return reported normalised viability; argument: COc1cc2c(Oc3ccc4[nH]c(C)cc4c3F)ncnc2cc1OCCCN1CCCC1
(A) 92

(Q) Return reported normalised viability; argument: C[C@H]1C[C@@H]2[C@H]([C@@H](O)C[C@@]3(C)[C@H]2CC[C@]3(O)C(=O)CO)[C@@]2(C)C=CC(=O)C=C12
(A) 114

(Q) Return reported normalised viability; argument: CCCCC(=O)OCC(=O)[C@]1(O)Cc2c(O)c3c(c(O)c2[C@@H](O[C@H]2C[C@H](NC(=O)C(F)(F)F)[C@H](O)[C@H](C)O2)C1)C(=O)c1c(OC)cccc1C3=O
(A) 45.6

(Q) Return reported normalised viability; argument: Cc1cnc(NC(=O)Nc2cc(Br)c(C)cc2OC[C@@H]2CNCCO2)cn1
(A) 94

* * *

For each record, write down the corresponding normalised viability.
System: CAL-148
PROTOCOL_NOTES: normalised viability (% of control), CellTiter-Blue; higher = more viable cells (about 100 = DMSO control)
SETTINGS: 3000 nM; incubation time: 72 h
Please give a number only; it is taken to be in %.

(Q) Observed normalised viability on CAL-148 for CC1=C(/C=C/C(C)=C/C=C/C(C)=C/C(=O)O)C(C)(C)CCC1 [Tretinoin] , please.
(A) 80.1

(Q) Observed normalised viability on CAL-148 for O=C(Cc1ccc(-c2ccc(OCCN3CCOCC3)cc2)cn1)NCc1ccccc1 [KX2-391] , please.
(A) 24.2

(Q) Observed normalised viability on CAL-148 for COc1cc([C@@H]2c3cc4c(cc3[C@@H](O[C@@H]3O[C@@H]5CO[C@@H](c6cccs6)O[C@H]5[C@H](O)[C@H]3O)[C@H]3COC(=O)[C@H]23)OCO4)cc(OC)c1O [Teniposide] , please.
(A) 9.86

(Q) Observed normalised viability on CAL-148 for NCCCNCCSP(=O)(O)O [Amifostine] , please.
(A) 95.1

(Q) Observed normalised viability on CAL-148 for CCc1cncnc1N1CCN(Cc2nc3ccc(C(F)(F)F)cc3[nH]2)CC1 , please.
(A) 104

(Q) Observed normalised viability on CAL-148 for C1CN1c1nc(N2CC2)nc(N2CC2)n1 [Triethylenemelamine] , please.
(A) 85.6

(Q) Observed normalised viability on CAL-148 for CCCS(=O)(=O)Nc1ccc(F)c(C(=O)c2c[nH]c3ncc(-c4ccc(Cl)cc4)cc23)c1F [Vemurafenib] , please.
(A) 89.1

(Q) Observed normalised viability on CAL-148 for Oc1ncc(N(CCCl)CCCl)c(O)n1 [Uracil mustard] , please.
(A) 113
